Catalogue of IC50 readings, one per entry.
# testTarget: Pol theta (1-899) (Homo sapiens, UniProt O75417)
# Construct: Pol theta (1-899) (5 nM) in assay buffer
# Sequence (O75417 1-899): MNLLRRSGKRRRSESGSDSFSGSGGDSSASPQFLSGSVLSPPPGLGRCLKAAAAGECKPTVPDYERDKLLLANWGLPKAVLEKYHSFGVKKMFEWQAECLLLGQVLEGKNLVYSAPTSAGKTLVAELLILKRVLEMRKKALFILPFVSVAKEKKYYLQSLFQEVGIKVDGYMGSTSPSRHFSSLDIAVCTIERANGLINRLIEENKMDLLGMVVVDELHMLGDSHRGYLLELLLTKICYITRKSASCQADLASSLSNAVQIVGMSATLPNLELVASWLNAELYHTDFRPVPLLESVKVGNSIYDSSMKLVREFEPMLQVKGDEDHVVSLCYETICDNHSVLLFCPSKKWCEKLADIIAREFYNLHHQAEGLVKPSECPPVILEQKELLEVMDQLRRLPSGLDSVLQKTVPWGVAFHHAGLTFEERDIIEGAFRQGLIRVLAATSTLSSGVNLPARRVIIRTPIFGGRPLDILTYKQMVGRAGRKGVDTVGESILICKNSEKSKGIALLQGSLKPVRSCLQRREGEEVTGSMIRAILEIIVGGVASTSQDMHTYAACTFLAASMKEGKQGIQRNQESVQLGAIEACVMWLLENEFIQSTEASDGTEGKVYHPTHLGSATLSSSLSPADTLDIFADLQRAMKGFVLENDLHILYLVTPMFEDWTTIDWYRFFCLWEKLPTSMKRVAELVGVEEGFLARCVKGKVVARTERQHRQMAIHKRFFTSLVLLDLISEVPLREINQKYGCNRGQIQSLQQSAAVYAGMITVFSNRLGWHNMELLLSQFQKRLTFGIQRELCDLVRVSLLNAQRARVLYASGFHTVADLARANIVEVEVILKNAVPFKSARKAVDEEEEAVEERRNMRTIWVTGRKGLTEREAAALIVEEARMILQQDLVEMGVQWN
# assayMethodText: Pol theta ATPase activity, NADH oxidation-coupled enzymatic assay (ATPase NADH coupling: Standard Screening: hPolQ)
# Format: biochemical
# conditionInfo: Table 5; Pol theta (1-899) 5 nM, ATP, dT50 ssDNA

COc1cnc(Cl)cc1-c1cc(C)ncc1C(=O)Nc1nnc(O[C@@H]2CCC[C@@H](O)C2)s1 (single isomer, unassigned) [Example 162]; ≤ 200 nM
COc1cnc(Cl)cc1-c1cc(C)ncc1C(=O)Nc1nnc(O[C@H]2COCC2(F)F)s1 (single isomer, unassigned) [Example 128]; ≤ 200 nM
COc1cnc(Cl)cc1-c1cc(C)ncc1C(=O)Nc1nnc(O[C@H]2CO[C@H](C)C2)s1 (single isomer, unassigned) [Example 192]; ≤ 200 nM

stdin: Requested read-out: IC50. Entry: COc1cnc(Cl)cc1-c1cc(C)ncc1C(=O)Nc1nnc(O[C@@H]2CC[C@H]2O)s1 (single isomer, unassigned) [Example 114]
stdout: ≤ 200 nM

stdin: Please do the same for Cc1cc(-c2cc(Cl)ncc2OC(F)F)c(C(=O)Nc2nnc(O[C@H]3CCOC3)s2)cn1 [Example 83] as well.
stdout: ≤ 200 nM

stdin: Next entry: COc1cnc(Cl)cc1-c1cc(C)ncc1C(=O)Nc1nnc(O[C@H]2CC[C@H]([C@H](C)O)CC2)s1 (single isomer, unassigned) [Example 200]
stdout: ≤ 200 nM
